FYI, the data here is from patent US20140356383A1.

TEST_SYSTEM: T1, human guanylyl cyclase C (GCC) (human, UniProt P25092 24-1073)
T1 construct: also called hGCC; STAR
T1 sequence (P25092 24-1073 limits assumed): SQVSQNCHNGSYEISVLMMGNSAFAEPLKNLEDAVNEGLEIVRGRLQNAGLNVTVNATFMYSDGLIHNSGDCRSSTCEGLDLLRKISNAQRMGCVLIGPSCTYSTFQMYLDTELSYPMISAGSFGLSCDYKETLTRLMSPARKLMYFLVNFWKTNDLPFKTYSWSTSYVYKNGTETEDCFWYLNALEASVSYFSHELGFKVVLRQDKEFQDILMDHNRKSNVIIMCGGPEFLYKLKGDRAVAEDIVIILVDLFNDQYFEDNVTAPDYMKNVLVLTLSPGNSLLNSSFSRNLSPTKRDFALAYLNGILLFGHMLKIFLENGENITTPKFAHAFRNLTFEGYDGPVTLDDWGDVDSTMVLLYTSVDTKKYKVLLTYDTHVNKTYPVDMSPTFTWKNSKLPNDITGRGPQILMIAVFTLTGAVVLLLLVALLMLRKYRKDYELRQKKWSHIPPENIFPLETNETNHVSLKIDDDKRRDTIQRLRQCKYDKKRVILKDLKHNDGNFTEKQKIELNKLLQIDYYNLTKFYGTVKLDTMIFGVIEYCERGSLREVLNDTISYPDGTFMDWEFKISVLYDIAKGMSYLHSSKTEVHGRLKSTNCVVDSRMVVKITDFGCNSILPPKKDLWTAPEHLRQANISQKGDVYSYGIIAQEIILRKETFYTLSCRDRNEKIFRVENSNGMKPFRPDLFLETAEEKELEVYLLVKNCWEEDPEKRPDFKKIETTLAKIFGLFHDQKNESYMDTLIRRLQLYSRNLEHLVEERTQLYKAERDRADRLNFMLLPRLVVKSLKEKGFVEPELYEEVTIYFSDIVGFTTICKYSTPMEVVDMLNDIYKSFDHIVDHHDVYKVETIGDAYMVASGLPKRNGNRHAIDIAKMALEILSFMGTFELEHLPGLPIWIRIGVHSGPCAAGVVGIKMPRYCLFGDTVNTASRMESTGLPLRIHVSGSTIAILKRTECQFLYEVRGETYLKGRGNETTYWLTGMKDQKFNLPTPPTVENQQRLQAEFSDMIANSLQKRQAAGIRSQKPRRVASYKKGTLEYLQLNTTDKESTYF
METHOD: flow cytometry, 293 GCC #2 cells, 0.001 µg/ml
QUANTITY_KIND: MFI
Answer with a bare number; do not write a unit.

{"columns": ["BINDER", "QUANTITY_KIND", "RECORDED_VALUE"],
 "data": [
  ["5F9-mc-MMAF (antibody, V domains shown, mc-MMAF (non-cleavable linker) linked to cysteines freed by partial reduction of interchain disulfides (outside this variable domain); average drug loading about four) VH: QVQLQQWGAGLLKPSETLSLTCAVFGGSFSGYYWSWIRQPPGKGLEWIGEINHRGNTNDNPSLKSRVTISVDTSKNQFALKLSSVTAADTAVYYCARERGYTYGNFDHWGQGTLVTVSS VL: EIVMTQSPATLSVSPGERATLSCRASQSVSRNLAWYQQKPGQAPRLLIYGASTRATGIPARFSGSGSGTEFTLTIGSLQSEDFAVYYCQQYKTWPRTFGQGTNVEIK", "MFI", 483],
  ["5F9 vcMMAE immunoconjugate (antibody, V domains shown, mc-vc-MMAE linked to cysteines freed by partial reduction of interchain disulfides (outside this variable domain); average drug loading about 4 (3.6 in the described preparation), also called MLN0264; ML0264) VH: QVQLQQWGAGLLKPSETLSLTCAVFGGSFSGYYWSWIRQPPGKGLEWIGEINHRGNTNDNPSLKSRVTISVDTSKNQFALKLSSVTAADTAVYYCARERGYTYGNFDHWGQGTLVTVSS VL: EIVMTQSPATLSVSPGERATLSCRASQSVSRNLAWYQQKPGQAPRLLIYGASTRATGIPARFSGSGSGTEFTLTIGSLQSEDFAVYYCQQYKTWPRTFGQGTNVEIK", "MFI", 445],
  ["5F9-vc-MMAF (antibody, V domains shown, mc-vc-MMAF linked to cysteines freed by partial reduction of interchain disulfides (outside this variable domain); average drug loading about four) VH: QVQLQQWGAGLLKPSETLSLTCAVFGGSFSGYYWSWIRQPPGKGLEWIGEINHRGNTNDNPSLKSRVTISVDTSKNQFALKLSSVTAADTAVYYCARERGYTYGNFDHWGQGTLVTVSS VL: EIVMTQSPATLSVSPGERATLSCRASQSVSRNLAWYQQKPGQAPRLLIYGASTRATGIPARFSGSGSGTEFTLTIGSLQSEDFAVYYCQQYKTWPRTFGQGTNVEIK", "MFI", 440]
]}

Notebook: anti-GCC human monoclonal antibody 5F9 (antibody, V domains shown, also called mAb 5F9; MAb 5F9 (Prep A)) VH: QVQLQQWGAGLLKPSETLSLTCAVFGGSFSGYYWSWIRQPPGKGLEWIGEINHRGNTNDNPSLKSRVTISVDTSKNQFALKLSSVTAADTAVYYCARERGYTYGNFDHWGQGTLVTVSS VL: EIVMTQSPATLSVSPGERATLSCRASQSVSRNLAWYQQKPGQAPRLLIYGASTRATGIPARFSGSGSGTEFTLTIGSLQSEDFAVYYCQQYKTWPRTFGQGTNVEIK , MFI read as 500
